Attribution: ChEMBL document CHEMBL4665725

Assay: Solubility of the compound at pH 2
Type: physicochemical
Details: buffer
Result type: solubility (µM)
The answer is to be given in µM; state only the numeric part.

CC(C)(C)CC[C@H](NC(=O)c1cc(Cl)cc(Cl)c1)C(=O)O = 69

Could you tell me which solubility is on file for CC(C)(C)CC[C@H](NC(=O)c1ccc(Oc2ccccc2)nc1)C(=O)O ?
126

Param item = CC(C)(C)CC[C@H](NC(=O)c1cc(Cl)c[nH]1)C(=O)O ; retrieve measured solubility.
123

----------
Experiment: Solubility of the compound at pH 7
Type: physicochemical
Conditions: buffer
In this section we review reported solubility values for a set of compounds.
Could you give me the number in µM? Just the number is fine.

CC(C)(C)CC[C@H](NC(=O)c1cc(Cl)c[nH]1)C(=O)O = 135
CC(C)(C)CC[C@H](NC(=O)c1ccc(Oc2ccccc2)nc1)C(=O)O = 147

Attention now turns to another entry.
Given the compound CC(C)(C)CC[C@H](NC(=O)c1cc(Cl)cc(Cl)c1)C(=O)O , what is its reported solubility?
134
